Target protein (sequence): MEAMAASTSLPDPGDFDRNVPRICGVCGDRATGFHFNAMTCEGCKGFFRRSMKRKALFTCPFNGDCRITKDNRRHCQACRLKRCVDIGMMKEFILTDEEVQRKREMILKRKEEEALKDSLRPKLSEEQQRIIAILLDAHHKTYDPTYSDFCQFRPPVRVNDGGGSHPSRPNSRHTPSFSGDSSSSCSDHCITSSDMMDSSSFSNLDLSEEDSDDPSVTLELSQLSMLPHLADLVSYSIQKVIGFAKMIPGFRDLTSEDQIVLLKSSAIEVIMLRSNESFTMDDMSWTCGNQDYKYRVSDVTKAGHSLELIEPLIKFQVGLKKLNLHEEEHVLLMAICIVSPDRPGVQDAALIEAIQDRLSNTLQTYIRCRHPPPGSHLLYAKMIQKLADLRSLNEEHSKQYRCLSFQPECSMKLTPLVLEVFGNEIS
measurement.label: IC50 (nM)
Answers are plain numbers, in nM.

(Q) For the compound C=C1/C(=C\C=C(/C)c2cccc(CCC#CCC(O)(C(F)(F)F)C(F)(F)F)c2)C[C@@H](O)C[C@@H]1O , what IC50 is on record?
(A) 4.6
